Origin of values: patent US20240216513A1

Would you mind telling me the reported % Release of degrader after 24 h dog of each entry?
experiment-summary: BTK FAC plasma stability assay, dog plasma
Assay type: in vitro ADME
measurement-conditions: 24 h
One number for each entry, in %.

CCCCCCCCCCCN(C(=O)CCCCCCCCCCO)C(CCC(=O)NCCOCCOCCOCCOCCOCCOCCOCCOCCOCCOCCOCCOCCC(=O)NCCC(=O)NCCC(=O)OC(C)(C)c1ccc(C(=O)Nc2cc(F)cc(-c3ncnc4[nH]c(-c5ccc(CCN6CCC7(CC6)CCN(C(=O)c6ccc(OC)c(N8CCC(=O)NC8=O)c6)CC7)cc5)cc34)c2C)c(F)c1)C(=O)O (centres unmarked) :: 1

For the next question, use this compound.
Ask: I have this compound here, CCCCCCCCCCCN(C(=O)CCCCCCCCCC(=O)O)C(CCC(=O)NCCOCCOCCOCCOCCOCCOCCOCCOCCOCCOCCOCCOCCC(=O)NCCOP(=O)(O)OC(C)(C)c1ccc(C(=O)Nc2cc(F)cc(-c3ncnc4[nH]c(-c5ccc(CCN6CCC7(CC6)CCN(C(=O)c6ccc(OC)c(N8CCC(=O)NC8=O)c6)CC7)cc5)cc34)c2C)c(F)c1)C(=O)O (centres unmarked) , and I need its recorded % Release of degrader after 24 h dog.
Result: 0
